- Study system: Serotonin 3 (5-HT3) receptor (Rattus norvegicus, UniProt P35563+Q9JJ16)
- Test: Binding affinity against radioligand [3H]quipazine labeled 5-hydroxytryptamine 3 receptor sites in neuroblastoma-glioma (NG108-15) cells.
Measured pKi, listed per entry.
Note on units: pKi is unitless, being -log10 of a concentration expressed in mol/L.

Compound	pKi
CN1C2CCC1CC(NC(=O)c1c(O)c3ccccc3[nH]c1=O)C2 (stereo not given)	8.12
CN1C2CCC1CC(NC(=O)c1c(O)c3cccnc3n(-c3ccccc3)c1=O)C2 (stereo not given)	7.85
CCCCn1c(=O)c(C(=O)NC2CC3CCC(C2)N3C)c(O)c2ccccc21 (stereo not given)	9.32
CCCCn1c(=O)c(C(=O)NC2CC3CCC(C2)N3C)c(O)c2cccnc21 (stereo not given)	8.19
Cc1nc2ccccc2c(O)c1C(=O)OC1CC2CCC(C1)N2C (stereo not given)	7.24
CN1C2CCC1CC(NC(=O)c1cnc3ccccc3c1O)C2 (stereo in doubt; 6f)	8.82

Query :: Quick one: pKi for Cc1nc2ccccc2c(O)c1C(=O)NC1CC2CCC(C1)N2C (stereo not given) ?
Result :: 8.14

Query :: Quick one: pKi for CN1C2CCCC1CC(NC(=O)c1cnc3ccccc3c1O)C2 (stereo not given) ?
Result :: 7.52

Query :: Quick one: pKi for CN1C2CCC1CC(NC(=O)c1cnc3ccccc3c1O)C2 (stereo in doubt; 6h) ?
Result :: 7.00

====

- Study system: Serotonin 3 (5-HT3) receptor (Rattus norvegicus, UniProt P35563+Q9JJ16)
- Test: Binding affinity against radioligand [3H]quipazine labeled 5-hydroxytryptamine 3 receptor sites in neuroblastoma-glioma (NG108-15) cells.
Measurement label: Ki

Field: example entries. Status: answers known.
Compound	Ki
CN1C2CCC1CC(NC(=O)c1cnc3ccccc3c1Cl)C2 (stereo unspecified)	85 nM
CN1C2CCC1CC(OC(=O)c1cnc3ccccc3c1)C2 (stereo unspecified)	66.9 nM
CN1C2CCC1CC(NC(=O)c1cnc3ccccc3c1N)C2 (stereo unspecified)	> 100 nM

Query :: Quick one: Ki for CN1C2CCC1CC(OC(=O)c1c(O)c3cccnc3n(-c3ccccc3)c1=O)C2 (stereo unspecified) ?
Result :: > 100 nM

Query :: Quick one: Ki for CCCCn1c(=O)c(C(=O)OC2CC3CCC(C2)N3C)c(O)c2ccccc21 (stereo unspecified) ?
Result :: > 100 nM

Query :: Quick one: Ki for CCCCn1c(=O)c(C(=O)OC2CC3CCC(C2)N3C)c(O)c2cccnc21 (stereo unspecified) ?
Result :: > 100 nM

====

- Study system: Serotonin 3 (5-HT3) receptor (Rattus norvegicus, UniProt P35563+Q9JJ16)
- Sequence (P35563 whole entry): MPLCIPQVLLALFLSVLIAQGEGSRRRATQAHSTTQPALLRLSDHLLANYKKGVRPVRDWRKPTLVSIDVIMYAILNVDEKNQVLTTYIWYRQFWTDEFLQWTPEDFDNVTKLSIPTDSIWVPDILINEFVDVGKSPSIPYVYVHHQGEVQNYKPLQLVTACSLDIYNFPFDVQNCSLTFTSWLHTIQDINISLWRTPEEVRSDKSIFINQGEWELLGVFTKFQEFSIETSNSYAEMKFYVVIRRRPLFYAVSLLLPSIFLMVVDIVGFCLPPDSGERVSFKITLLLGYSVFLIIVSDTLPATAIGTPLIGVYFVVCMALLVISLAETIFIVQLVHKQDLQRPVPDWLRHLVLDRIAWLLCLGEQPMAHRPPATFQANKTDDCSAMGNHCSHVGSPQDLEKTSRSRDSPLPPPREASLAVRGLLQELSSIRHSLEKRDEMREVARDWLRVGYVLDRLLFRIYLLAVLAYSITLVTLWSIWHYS
- Sequence (Q9JJ16 whole entry): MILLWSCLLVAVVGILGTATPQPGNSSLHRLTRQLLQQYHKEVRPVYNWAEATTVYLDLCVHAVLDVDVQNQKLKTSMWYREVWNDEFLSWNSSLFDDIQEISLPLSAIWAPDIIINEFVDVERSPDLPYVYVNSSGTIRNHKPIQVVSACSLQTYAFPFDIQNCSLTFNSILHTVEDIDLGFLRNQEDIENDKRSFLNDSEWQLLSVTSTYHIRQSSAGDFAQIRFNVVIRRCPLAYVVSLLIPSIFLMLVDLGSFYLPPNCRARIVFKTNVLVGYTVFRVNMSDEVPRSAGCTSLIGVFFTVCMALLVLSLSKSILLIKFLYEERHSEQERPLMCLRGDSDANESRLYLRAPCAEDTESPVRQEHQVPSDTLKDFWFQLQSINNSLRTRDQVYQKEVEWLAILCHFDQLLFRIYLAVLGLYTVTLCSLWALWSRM
- Test: Binding affinity against radioligand [3H]quipazine labeled 5-hydroxytryptamine 3 receptor sites in neuroblastoma-glioma (NG108-15) cells.
Measured pKi, listed per entry.
Note on units: pKi is unitless, being -log10 of a concentration expressed in mol/L.

Field: example entries. Status: answers known.
Compound	Study system	Measurement label	Readout value
CN1C2CCC1CC(NC(=O)c1c(O)c3ccccc3n(-c3ccccc3)c1=O)C2 (stereo unspecified)	Serotonin 3 (5-HT3) receptor (Rattus norvegicus, UniProt P35563+Q9JJ16)	pKi	8.85
CN1C2CCC1CC(OC(=O)c1cnc3ccccc3c1O)C2 (stereo unspecified)	Serotonin 3 (5-HT3) receptor (Rattus norvegicus, UniProt P35563+Q9JJ16)	pKi	8.21

Query :: Param readout= pKi; system= Serotonin 3 (5-HT3) receptor (Rattus norvegicus, UniProt P35563+Q9JJ16); entry= O=C(NC1CCN2CCCC1C2)c1cnc2ccccc2c1O (stereo unspecified) ; returns value.
Result :: 7.74

====

- Study system: Serotonin 3 (5-HT3) receptor (Rattus norvegicus, UniProt P35563+Q9JJ16)
- Test: Binding affinity against radioligand [3H]quipazine labeled 5-hydroxytryptamine 3 receptor sites in neuroblastoma-glioma (NG108-15) cells.
pKi: −log10 of the molar value.
Measurement label: pKi

Molecule	Study system	pKi
Cc1ccc2c(O)c(C(=O)OC3CC4CCC(C3)N4C)cnc2n1 (stereo not drawn)	Serotonin 3 (5-HT3) receptor (Rattus norvegicus, UniProt P35563+Q9JJ16)	< 7.00
CN1C2CCC1CC(NC(=O)c1cnc3ccccc3c1)C2 (stereo not drawn)	Serotonin 3 (5-HT3) receptor (Rattus norvegicus, UniProt P35563+Q9JJ16)	< 7.00

Please find the next molecule below.
Query :: Quick one: pKi for Cc1ccc2c(O)c(C(=O)NC3CC4CCC(C3)N4C)cnc2n1 (stereo not drawn) ?
Result :: < 7.00
